Test system: LXRb homodimer (NR concentration 270 nM)
Test: PBM binding z-score (relative to random genomic background probes); higher = stronger binding; sequences stand for … in GC…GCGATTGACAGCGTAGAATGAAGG
Could you label it condition met if measured PBM binding z-score is 2 or higher, and condition not met otherwise?

Example cases with answers are listed next.
[
  {
    "primary-sequence": "CAAACTAGGTCACGAACGGTCAAAGTCGAATGAC",
    "label-value": "condition not met"
  },
  {
    "primary-sequence": "ACTAGTTTGTCAGCTGAGGTCACACACAATTCGG",
    "label-value": "condition not met"
  },
  {
    "primary-sequence": "ATATGTAGGTTAAGGGTCATCCAGGTTGGTTCGC",
    "label-value": "condition not met"
  },
  {
    "primary-sequence": "CCTAGTTGGTCAAGGTCACACGCGCTATAGGTAC",
    "label-value": "condition not met"
  },
  {
    "primary-sequence": "CGAACTAGGTCATTGACTGGACAGTGAATAGTAA",
    "label-value": "condition not met"
  }
]

We next turn to a different sequence, shown below.
Is reported PBM binding z-score greater than or equal to 2 here: TATACAGGGTCACAGGCCAGAGTACGAATGTCGA
condition met

---

Test system: RARa homodimer (NR concentration 270 nM)
Assay: PBM binding z-score (relative to random genomic background probes); higher = stronger binding; sequences stand for … in GC…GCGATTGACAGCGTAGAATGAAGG
observable: PBM binding z-score
Numbers only.

[
  {
    "primary-sequence": "CGAACGATGGCATGAGTTGATAGCAAATGCCGAT",
    "PBM binding z-score": -0.0736
  },
  {
    "primary-sequence": "CCTTACGGGTCACGAGTTTATAGCACGACGAGCG",
    "PBM binding z-score": 0.68
  },
  {
    "primary-sequence": "CAAACTAGGTCAAATGTCAAAGTCGAGCCAACCA",
    "PBM binding z-score": 1.02
  }
]

Please examine the following record next.
What does the data say about its PBM binding z-score? Entry: ACTAGCAGGCCAAGTTTGGTTCACTCAAACAAAG
-0.755

---

System: THRa homodimer (NR concentration 90 nM)
Test: PBM binding z-score (relative to random genomic background probes); higher = stronger binding; sequences stand for … in GC…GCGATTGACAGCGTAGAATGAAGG
observable: PBM binding z-score
Answers are plain numbers.

Answered examples (10):
[
  {
    "primary-sequence": "GCAGACAGGTGAAACACAGGTAACTCAGGGTGGC",
    "PBM binding z-score": -0.504
  },
  {
    "primary-sequence": "GCGACTGGGGCAAAGCAGGTTACCATCAGGTTGG",
    "PBM binding z-score": -0.213
  },
  {
    "primary-sequence": "CCTAGTTGGTCAGGGTCACACACGCTATAGGTAC",
    "PBM binding z-score": 2.49
  },
  {
    "primary-sequence": "ATATGTAGGTTATCGGGTCACTCAGTTTGCGCAT",
    "PBM binding z-score": 3.18
  },
  {
    "primary-sequence": "TTACCAAGGTGAACGTCGTTGATCCCTCTGTAGA",
    "PBM binding z-score": 0.991
  },
  {
    "primary-sequence": "TTTACAGGGTCAAAGGCCAGAGTACGAATGTCGA",
    "PBM binding z-score": 0.893
  },
  {
    "primary-sequence": "CCTACTGGGCCATTCAGAGGTCATAGATCATATG",
    "PBM binding z-score": 1.4
  },
  {
    "primary-sequence": "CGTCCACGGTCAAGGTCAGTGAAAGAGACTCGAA",
    "PBM binding z-score": 1.64
  },
  {
    "primary-sequence": "TCATATGGGTAAAAGGTGAAAGTCGGTGTGGTAA",
    "PBM binding z-score": 0.164
  },
  {
    "primary-sequence": "CAATCTAGGTCACCGGAAGGTCAAAGTCCGCATG",
    "PBM binding z-score": 3.62
  }
]

Hi! Can you tell me PBM binding z-score for each of these sequences?
1. TCGAGTAGGTTAGTTGGGGCATTCAGCCAACATA
2. ACAGACAGGTGATGAAGGTAGCTCAGGCTATCAT
3. CCTCGGAGGAAAGAAGGTCAGAGCTGTCCGCTTT
4. CGAACTAGGTCAGAACAGGTCAGTGAAGGATGAT
5. ATCGAAAGTTCGAAGGTGAGTATACCCACCCGAA
6. TCTAGCAGGCCAGAGGGTCACCCAAGAGGTACGG
7. AGAATGAGTTTAAGATCAGGGAAACAGAATACAT
8. TCTTGTAGATCAACAGGGGGTTAAGAAAGATCGA

[-0.251, -0.392, -0.547, 0.526, -0.388, 0.143, -0.184, 0.559]
